System: Neuregulin-1 EGF-like domain
Test: binders of neuregulin-1 EGF-like domain, primary screen, biochemical, small-molecule microarray, 635 nm fluorescence (AID 1081);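 further: binding of the protein to compounds printed on small-molecule microarray slides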
Details: small-molecule microarray binding, higher = more signal
ASSAY_READOUT: composite z-score
Lab note: record just the number, no unit beside it.

Task: Please provide the recorded composite z-score for COc1c(C)cc(-c2cc3c(c(Cc4ccccc4)n2)[Si](C(C)C)(C(C)C)OC3)cc1C , tested on Neuregulin-1 EGF-like domain.
Result: -0.588

Task: I'm curious: which composite z-score was measured for CN1C(=O)C2C=CC(C(O)Cc3ccccc3)N(N(c3ccccc3)c3ccccc3)C2C1=O (stereo not drawn) tested on Neuregulin-1 EGF-like domain?
Result: 1.11

Task: GET /values?readout=composite z-score&system=Neuregulin-1 EGF-like domain&item= COCCOC(=O)N1C(=O)[C@@]2(c3cc(C#CC4(O)CCCCCC4)ccc31)[C@H](C(N)=O)[C@H]1C(=O)O[C@H](c3ccccc3)[C@H](c3ccccc3)N1[C@@H]2c1ccccc1OCCO
Result: 1.3

Task: Missing value: composite z-score, Neuregulin-1 EGF-like domain, entry COCC(=C=CC[C@H](O)c1cccc(OCCO)c1)C[C@H](O)c1ccccn1 . Fill in?
Result: 1.44

Task: Could you share what composite z-score was measured for NC(N)=NCc1cn(CCc2c[nH]c3ccccc23)nn1 , tested on Neuregulin-1 EGF-like domain?
Result: 0.992

Task: Form field - read-out: composite z-score; system: Neuregulin-1 EGF-like domain; submitted item: O=C1O[C@@H](c2ccccc2)[C@@H](c2ccccc2)N2[C@@H](c3ccc(O)cc3)[C@]3(C(=O)Nc4ccc(C#CCCO)cc43)[C@@H](C(=O)NC[C@H](O)c3ccccc3)[C@H]12
Result: 1

Task: Requested read-out composite z-score, target or system Neuregulin-1 EGF-like domain, entry O=C1O[C@@H](c2ccccc2)[C@@H](c2ccccc2)N2[C@@H](c3ccc(O)cc3)[C@]3(C(=O)Nc4ccc(C#CC5=CCCCC5)cc43)[C@@H](C(=O)N3CCN(c4ncccn4)CC3)[C@H]12
Result: 1.2

Task: Field: composite z-score (Neuregulin-1 EGF-like domain). Entry: O=C(CCCCCCC(=O)Nc1ccccc1)N/N=C/c1ccccc1
Result: -0.147
